# system.name: adenosine A2a receptor (Homo sapiens, UniProt P29274)
# Sequence (P29274 whole entry): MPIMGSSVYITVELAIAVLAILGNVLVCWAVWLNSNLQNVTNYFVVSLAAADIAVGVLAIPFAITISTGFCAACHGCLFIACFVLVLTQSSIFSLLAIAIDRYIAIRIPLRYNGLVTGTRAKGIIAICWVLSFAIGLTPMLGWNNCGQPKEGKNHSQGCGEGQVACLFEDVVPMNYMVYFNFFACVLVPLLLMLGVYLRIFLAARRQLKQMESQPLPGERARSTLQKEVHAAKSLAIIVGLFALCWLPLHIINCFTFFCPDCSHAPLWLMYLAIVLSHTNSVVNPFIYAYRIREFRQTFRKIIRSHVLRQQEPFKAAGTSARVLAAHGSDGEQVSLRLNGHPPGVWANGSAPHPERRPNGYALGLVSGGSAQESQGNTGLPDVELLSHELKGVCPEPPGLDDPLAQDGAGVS
Where a name gives a salt, the structure may show the parent alone.
recorded.endpoint: pKi
// field semantics: pKi = negative decimal log of concentration (mol/L)

Incoming: For the compound C=CCn1c(-c2cccc(F)c2)nc2c(N)nc(C#CC3(O)CCC3)nc21 [Example 20, hydrochloride] , what pKi is on record?
Outgoing: 8.02

----------
# System: primary cultured rat hepatic cells
# measurement.notes: Inhibition of NECA-stimulated glucose production in primary cultured rat hepatic cells
# Format: cell-based
# measurement.setup: primary cultured Wistar rat hepatic cells, NECA 0.1, 1 hour; read-out: IC50 for inhibition of NECA-stimulated glucose release
Where a name gives a salt, the structure may show the parent alone.
Recorded IC50 values for a group of compounds are listed next.
Kindly answer with a numeric value in nM, unit omitted.

compound="C=CCn1c(-c2cccc(F)c2)nc2c(N)nc(C#CC3(O)CCC3)nc21 [Example 20, hydrochloride]" data_value=8.4

Could you now look at the following compound, please?
Incoming: Could you share which IC50 value was measured for Cl.Cn1cc(-n2c(-c3cccc(F)c3)nc3c(N)ncnc32)ccc1=O ?
Outgoing: 7.6
